# Test system: 266 human PDZ domains (PDZome)
# protocol-text: Holdup assay (chromatographic retention, PDZome-binding profile, BI)
# Design: key: binding intensity: 0.00 = no binding, 1.00 = maximal binding
# test-conditions: PDZ domain MPP3-1
*1 amine or outer side, *2 acyl side, *3 side chain or, on linkers, in order; H or OH if unused. Where a SMILES comes first, the peptide text is derived from it. The star is where a group is joined. X1 = O=C(CCCC[C@@H]1SC[C@@H]2NC(=O)N[C@@H]21)NCCCOCCOCCOCCCN*; Suc = O=C(CCC(=O)[*:2])[*:1]
quantity-kind: BI
I'd appreciate a reply containing only the number, no unit.

Please provide the recorded BI for CC[C@H](C)[C@H](NC(=O)[C@H](CCC(N)=O)NC(=O)[C@@H](NC(=O)[C@H](Cc1c[nH]cn1)NC(=O)[C@H](CCC(N)=O)NC(=O)[C@H](CC(=O)O)NC(=O)[C@H](CCC(=O)O)NC(=O)[C@H](CC(=O)O)NC(=O)CCC(=O)NCCCOCCOCCOCCCNC(=O)CCCC[C@@H]1SC[C@@H]2NC(=O)N[C@@H]21)[C@@H](C)O)C(=O)N[C@H](C(=O)N[C@@H](CCCCNC(C)=O)C(=O)N[C@H](C(=O)O)C(C)C)[C@@H](C)O , tested on 266 human PDZ domains (PDZome).
-0.063

Please provide the recorded BI for CC[C@H](C)[C@H](NC(=O)[C@H](CCC(N)=O)NC(=O)[C@@H](NC(=O)[C@H](Cc1c[nH]cn1)NC(=O)[C@H](CCC(N)=O)NC(=O)[C@H](CC(=O)O)NC(=O)[C@H](CCC(=O)O)NC(=O)[C@H](CC(=O)O)NC(=O)CCC(=O)NCCCOCCOCCOCCCNC(=O)CCCC[C@@H]1SC[C@@H]2NC(=O)N[C@@H]21)[C@@H](C)O)C(=O)N[C@H](C(=O)N[C@@H](CCCNC(=N)N)C(=O)N[C@H](C(=O)O)C(C)C)[C@@H](C)O [PTEN_KR] ({X1-Suc}-DEDQHTQITRV-OH) , tested on 266 human PDZ domains (PDZome).
-0.023

Please provide the recorded BI for CC[C@H](C)[C@H](NC(=O)[C@H](CCC(N)=O)NC(=O)[C@@H](NC(=O)[C@H](Cc1c[nH]cn1)NC(=O)[C@H](CCC(N)=O)NC(=O)[C@H](CC(=O)O)NC(=O)[C@H](CCC(=O)O)NC(=O)[C@H](CC(=O)O)NC(=O)[C@H](Cc1ccccc1)NC(=O)[C@@H]1CCCN1C(=O)CCC(=O)NCCCOCCOCCOCCCNC(=O)CCCC[C@@H]1SC[C@@H]2NC(=O)N[C@@H]21)[C@@H](C)O)C(=O)N[C@H](C(=O)N[C@@H](CCCCN)C(=O)N[C@H](C(=O)O)C(C)C)[C@@H](C)O [PTEN_13] ({X1-Suc}-PFDEDQHTQITKV-OH) , tested on 266 human PDZ domains (PDZome).
-0.03

Please provide the recorded BI for CC[C@H](C)[C@H](NC(=O)[C@H](CCC(N)=O)NC(=O)[C@@H](NC(=O)[C@H](Cc1c[nH]cn1)NC(=O)[C@H](CCC(N)=O)NC(=O)[C@H](CC(=O)O)NC(=O)[C@H](CCC(=O)O)NC(=O)[C@H](CC(=O)O)NC(=O)CCC(=O)NCCCOCCOCCOCCCNC(=O)CCCC[C@@H]1SC[C@@H]2NC(=O)N[C@@H]21)[C@@H](C)O)C(=O)N[C@H](C(=O)N[C@@H](CCCCN)C(=O)N[C@H](C(=O)O)C(C)C)[C@@H](C)O , tested on 266 human PDZ domains (PDZome).
0.035
